Quick reference: IC50 of the listed items.
Molecular target: Histone deacetylase 2 (Homo sapiens)
Sequence (Q92769 whole entry): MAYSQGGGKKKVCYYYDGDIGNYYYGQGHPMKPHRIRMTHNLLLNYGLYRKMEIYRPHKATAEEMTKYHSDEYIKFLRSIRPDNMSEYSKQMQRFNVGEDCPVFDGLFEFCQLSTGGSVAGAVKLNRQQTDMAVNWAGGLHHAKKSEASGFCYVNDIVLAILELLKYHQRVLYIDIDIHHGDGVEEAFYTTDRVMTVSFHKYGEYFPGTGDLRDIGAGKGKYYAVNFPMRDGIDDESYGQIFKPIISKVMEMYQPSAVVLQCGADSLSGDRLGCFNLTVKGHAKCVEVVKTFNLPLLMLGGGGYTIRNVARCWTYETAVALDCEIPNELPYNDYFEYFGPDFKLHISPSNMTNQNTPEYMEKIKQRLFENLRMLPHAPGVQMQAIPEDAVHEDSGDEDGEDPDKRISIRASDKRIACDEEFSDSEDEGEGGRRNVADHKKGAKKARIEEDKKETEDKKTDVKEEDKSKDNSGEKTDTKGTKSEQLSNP
Assay: Inhibition of recombinant His-tagged HDAC2 (1 to 488) (unknown origin) using MAL as substrate incubated for 3 hrs prior to substrate addition measured after 60 mins by fluorescence plate reader analysis
Please reply with the bare figure in nM and do not write the unit itself.

* Nc1ccccc1NC(=O)c1ccc(CSC2=N[C@@H](c3ccccc3)CS2)cc1 | 440

Item `Nc1ccccc1NC(=O)c1ccc(CSC2=N[C@@H](Cc3c[nH]c4ccccc34)CS2)cc1` ; assay system Histone deacetylase 2 (Homo sapiens); IC50 reported as 920

Record CC(=O)N1C(NCc2ccc(C(=O)Nc3ccccc3N)cc2)=NC(=O)C1Cc1c[nH]c2ccccc12 (racemic) / Histone deacetylase 2 (Homo sapiens), IC50 recorded as 116

Form: item Nc1ccccc1NC(=O)c1ccc(CNC2=NC(=O)C(Cc3ccccc3)N2)cc1 (racemic) ; test system Histone deacetylase 2 (Homo sapiens); IC50: 66

Here `Nc1ccccc1NC(=O)c1ccc(CNC2=N[C@@H](c3ccccc3)CS2)cc1` was tested on Histone deacetylase 2 (Homo sapiens), and its IC50 came to 85

Case Nc1ccccc1NC(=O)c1ccc(CNC2=NC(=O)C(Cc3c[nH]c4ccccc34)N2)cc1 (racemic) , Histone deacetylase 2 (Homo sapiens), IC50 recorded as 78

Item: CC(C)(C)OC(=O)N1C(NCc2ccc(C(=O)Nc3ccccc3N)cc2)=NC(=O)C1Cc1c[nH]c2ccccc12 (racemic) | System: Histone deacetylase 2 (Homo sapiens) | IC50: 48

Record `Nc1cc(O)ccc1NC(=O)c1ccc(CNc2nccc(-c3cccnc3)n2)cc1` / Histone deacetylase 2 (Homo sapiens), IC50 recorded as 1430

IC50 for Histone deacetylase 2 (Homo sapiens) with input `Nc1ccccc1NC(=O)c1ccc(CSC2=N[C@@H](Cc3ccccc3)CS2)cc1` equals 580

The measured IC50 that `Nc1ccccc1NC(=O)c1ccc(CNC2=NC[C@@H](c3ccccc3)S2)cc1` showed for Histone deacetylase 2 (Homo sapiens) is 111

The observed IC50 for `Nc1ccccc1NC(=O)c1ccc(CNC2=N[C@@H](c3ccc(O)cc3)CS2)cc1` when tested with Histone deacetylase 2 (Homo sapiens) stands at 44

// IC50 (Histone deacetylase 2 (Homo sapiens)) for Nc1ccccc1NC(=O)c1ccc(CNC2=NC(=O)C(c3ccccc3)N2)cc1 (racemic) = 56

Histone deacetylase 2 (Homo sapiens) assay, compound `COc1ccc(NC(=O)c2ccc(CNc3nccc(-c4cccnc4)n3)cc2)c(N)c1` , recorded IC50 = 248

----------
Molecular target: Histone deacetylase 3/NCoR1 (Homo sapiens, UniProt O15379)
Sequence (O15379 whole entry): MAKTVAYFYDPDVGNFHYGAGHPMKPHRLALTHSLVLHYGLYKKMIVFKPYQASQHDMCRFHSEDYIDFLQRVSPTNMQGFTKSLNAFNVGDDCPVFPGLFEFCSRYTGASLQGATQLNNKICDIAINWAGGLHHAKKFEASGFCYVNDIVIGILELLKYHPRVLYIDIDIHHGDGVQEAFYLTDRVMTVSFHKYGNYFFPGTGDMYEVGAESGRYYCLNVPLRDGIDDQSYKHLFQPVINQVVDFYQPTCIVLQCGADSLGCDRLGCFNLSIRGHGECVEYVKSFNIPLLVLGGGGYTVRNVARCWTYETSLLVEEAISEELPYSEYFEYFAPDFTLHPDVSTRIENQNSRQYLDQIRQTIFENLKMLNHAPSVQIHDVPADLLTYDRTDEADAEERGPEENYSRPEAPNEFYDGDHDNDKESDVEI
Sequence (O75376 whole entry, further chain): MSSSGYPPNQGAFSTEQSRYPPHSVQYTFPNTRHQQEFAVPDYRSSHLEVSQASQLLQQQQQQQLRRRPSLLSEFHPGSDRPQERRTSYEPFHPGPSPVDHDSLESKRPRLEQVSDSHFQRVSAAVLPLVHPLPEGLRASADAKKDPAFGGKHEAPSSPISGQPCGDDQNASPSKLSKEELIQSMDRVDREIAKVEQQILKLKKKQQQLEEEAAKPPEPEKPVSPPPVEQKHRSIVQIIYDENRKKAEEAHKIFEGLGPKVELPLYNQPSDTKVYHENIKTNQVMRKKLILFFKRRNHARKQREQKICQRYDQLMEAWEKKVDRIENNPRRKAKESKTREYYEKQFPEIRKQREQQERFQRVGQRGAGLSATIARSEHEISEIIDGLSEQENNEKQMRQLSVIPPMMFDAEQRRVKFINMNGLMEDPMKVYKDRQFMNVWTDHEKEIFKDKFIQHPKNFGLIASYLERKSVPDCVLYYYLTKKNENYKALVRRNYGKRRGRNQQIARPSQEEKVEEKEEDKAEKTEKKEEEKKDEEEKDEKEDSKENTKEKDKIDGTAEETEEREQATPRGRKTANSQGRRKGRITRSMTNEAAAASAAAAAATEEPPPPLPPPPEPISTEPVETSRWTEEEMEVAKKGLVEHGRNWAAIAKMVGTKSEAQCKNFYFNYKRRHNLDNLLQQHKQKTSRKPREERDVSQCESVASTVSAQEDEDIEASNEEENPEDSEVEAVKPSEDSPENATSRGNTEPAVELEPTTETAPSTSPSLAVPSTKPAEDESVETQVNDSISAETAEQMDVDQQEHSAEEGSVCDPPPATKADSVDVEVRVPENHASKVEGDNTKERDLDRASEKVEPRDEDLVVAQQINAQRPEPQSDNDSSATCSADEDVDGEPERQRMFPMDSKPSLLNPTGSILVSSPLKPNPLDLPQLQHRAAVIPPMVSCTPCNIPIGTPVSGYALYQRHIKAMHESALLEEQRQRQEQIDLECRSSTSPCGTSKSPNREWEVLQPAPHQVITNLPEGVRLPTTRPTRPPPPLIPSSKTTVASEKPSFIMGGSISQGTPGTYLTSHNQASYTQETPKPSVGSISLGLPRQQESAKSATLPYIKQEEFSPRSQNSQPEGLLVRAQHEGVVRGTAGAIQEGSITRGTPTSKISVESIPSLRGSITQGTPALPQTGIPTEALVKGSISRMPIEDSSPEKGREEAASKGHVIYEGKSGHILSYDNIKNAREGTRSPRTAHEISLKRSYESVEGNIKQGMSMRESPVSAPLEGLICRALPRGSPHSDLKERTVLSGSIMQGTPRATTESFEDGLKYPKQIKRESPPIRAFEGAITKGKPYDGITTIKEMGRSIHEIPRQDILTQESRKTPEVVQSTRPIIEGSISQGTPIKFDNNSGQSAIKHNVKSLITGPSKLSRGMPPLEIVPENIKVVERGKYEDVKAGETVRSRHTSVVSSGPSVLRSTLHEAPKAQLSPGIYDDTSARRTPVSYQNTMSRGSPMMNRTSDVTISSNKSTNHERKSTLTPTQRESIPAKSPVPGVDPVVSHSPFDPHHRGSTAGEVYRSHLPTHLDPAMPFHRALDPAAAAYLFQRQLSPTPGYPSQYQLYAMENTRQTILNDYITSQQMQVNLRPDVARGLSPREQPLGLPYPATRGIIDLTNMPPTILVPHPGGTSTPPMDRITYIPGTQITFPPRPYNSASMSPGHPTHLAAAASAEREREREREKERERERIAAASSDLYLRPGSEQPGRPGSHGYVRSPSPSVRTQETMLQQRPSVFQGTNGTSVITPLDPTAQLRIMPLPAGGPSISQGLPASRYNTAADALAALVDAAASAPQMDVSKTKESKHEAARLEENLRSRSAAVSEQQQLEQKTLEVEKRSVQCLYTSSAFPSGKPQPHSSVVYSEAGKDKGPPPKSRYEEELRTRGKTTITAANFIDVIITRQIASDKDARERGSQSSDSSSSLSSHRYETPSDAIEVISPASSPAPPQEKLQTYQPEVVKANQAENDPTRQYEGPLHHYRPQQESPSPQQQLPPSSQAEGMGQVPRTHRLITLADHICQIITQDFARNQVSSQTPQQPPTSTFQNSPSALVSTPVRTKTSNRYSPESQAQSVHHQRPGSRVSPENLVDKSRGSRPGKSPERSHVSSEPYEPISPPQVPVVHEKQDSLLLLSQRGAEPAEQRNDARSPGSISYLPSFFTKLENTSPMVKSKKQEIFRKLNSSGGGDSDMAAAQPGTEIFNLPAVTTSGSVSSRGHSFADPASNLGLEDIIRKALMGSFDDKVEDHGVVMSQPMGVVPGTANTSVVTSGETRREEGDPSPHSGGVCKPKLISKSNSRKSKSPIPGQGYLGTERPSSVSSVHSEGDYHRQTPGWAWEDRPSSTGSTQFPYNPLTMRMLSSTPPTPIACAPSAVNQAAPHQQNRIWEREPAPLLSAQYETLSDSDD
Test: Inhibition of recombinant HDAC3-NCoR1 (unknown origin) using MAL as substrate incubated for 3 hrs prior to substrate addition measured after 60 mins by fluorescence plate reader analysis
IC50 by entry:
Supply the numeric figure in nM, leaving out any unit text.

// solved cases for IC50 follow
- Nc1ccccc1NC(=O)c1ccc(CNC2=NC[C@@H](c3ccccc3)S2)cc1: 23
- Nc1cc(O)ccc1NC(=O)c1ccc(CNc2nccc(-c3cccnc3)n2)cc1: 719
- CC(C)(C)OC(=O)N1C(NCc2ccc(C(=O)Nc3ccccc3N)cc2)=NC(=O)C1Cc1c[nH]c2ccccc12 (racemic): 40
- O=C(NO)c1ccc(CNc2nccc(-c3cccnc3)n2)cc1: 31
- COc1ccc(NC(=O)c2ccc(CNc3nccc(-c4cccnc4)n3)cc2)c(N)c1: 111
- Nc1ccccc1NC(=O)c1ccc(CNC2=N[C@@H](c3ccccc3)CS2)cc1: 12
- CC(=O)N1C(NCc2ccc(C(=O)Nc3ccccc3N)cc2)=NC(=O)C1Cc1ccccc1 (racemic): 83
- Nc1ccccc1NC(=O)c1ccc(CN=C2N[C@H](Cc3ccccc3)CS2)cc1: 36

Next molecule, IC50 to be filled in.
Reported IC50 of `Nc1ccccc1NC(=O)c1ccc(CN=C2NC[C@H](c3ccccc3)S2)cc1` : 12
